# assayed_target: T1, Erbitux
# T1 construct: also called cetuximab; C225; not shown: the constant regions
# protocol_text: direct phage ELISA, proteins coated at 2 µg/ml, phage-Fab supernatant, OD450;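 note: specificity test of dual-activity clones, with binding assessed across an antigen panel to check whether each recognises only its cognate target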

binder: D1.5-103 (phage-displayed Fab clone) (Fab, V domains shown, EGFR/HER3 clone) VH: EVQLVESGGGLVQPGGSLRLSCAASGFTFTGNWIHWVRQAPGKGLEWVGEISPSGGYTDYADSVKGRFTISADTSKNTAYLQMNSLRAEDTAVYYCARESRVSYEAAMDYWGQGTLVTVSS VL: DIQMTQSPSSLSASVGDRVTITCRASQALGDSENGYADVAWYQQKPGKAPKLLIYEGSSLYSGVPSRFSGSGSGTDFTLTISSLQPEDFATYYCQQAAPSPYTFGQGTKVEIKR
binding result: no binding
//
binder: D1.5-113 (phage-displayed Fab clone) (Fab, V domains shown, EGFR/HER3 clone) VH: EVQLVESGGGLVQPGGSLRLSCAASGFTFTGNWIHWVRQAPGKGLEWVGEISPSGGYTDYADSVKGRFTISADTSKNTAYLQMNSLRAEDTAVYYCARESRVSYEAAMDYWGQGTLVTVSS VL: DIQMTQSPSSLSASVGDRVTITCRASQSLLASHDGTPWVAWYQQKPGKAPKLLIYDASYLYSGVPSRFSGSGSGTDFTLTISSLQPEDFATYYCQQSTFAPYTFGQGTKVEIKR
binding result: no binding
//
binder: D1.5-116 (phage-displayed Fab clone) (Fab, V domains shown, EGFR/HER3 clone) VH: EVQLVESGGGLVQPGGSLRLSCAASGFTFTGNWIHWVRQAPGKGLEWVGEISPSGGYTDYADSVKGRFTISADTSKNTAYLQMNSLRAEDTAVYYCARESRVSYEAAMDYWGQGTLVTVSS VL: DIQMTQSPSSLSASVGDRVTITCRASQAIASDVAWYQQKPGKAPKLLIYSASFLYSGVPSRFSGSGSGTDFTLTISSLQPEDFATYYCQQSEPEPYTFGQGTKVEIKR
binding result: no binding
